Target: Mitotic checkpoint serine/threonine-protein kinase BUB1 (Homo sapiens, UniProt O43683); note: in the data inactive means no Kd found up to 30 µM
Sequence (O43683 whole entry): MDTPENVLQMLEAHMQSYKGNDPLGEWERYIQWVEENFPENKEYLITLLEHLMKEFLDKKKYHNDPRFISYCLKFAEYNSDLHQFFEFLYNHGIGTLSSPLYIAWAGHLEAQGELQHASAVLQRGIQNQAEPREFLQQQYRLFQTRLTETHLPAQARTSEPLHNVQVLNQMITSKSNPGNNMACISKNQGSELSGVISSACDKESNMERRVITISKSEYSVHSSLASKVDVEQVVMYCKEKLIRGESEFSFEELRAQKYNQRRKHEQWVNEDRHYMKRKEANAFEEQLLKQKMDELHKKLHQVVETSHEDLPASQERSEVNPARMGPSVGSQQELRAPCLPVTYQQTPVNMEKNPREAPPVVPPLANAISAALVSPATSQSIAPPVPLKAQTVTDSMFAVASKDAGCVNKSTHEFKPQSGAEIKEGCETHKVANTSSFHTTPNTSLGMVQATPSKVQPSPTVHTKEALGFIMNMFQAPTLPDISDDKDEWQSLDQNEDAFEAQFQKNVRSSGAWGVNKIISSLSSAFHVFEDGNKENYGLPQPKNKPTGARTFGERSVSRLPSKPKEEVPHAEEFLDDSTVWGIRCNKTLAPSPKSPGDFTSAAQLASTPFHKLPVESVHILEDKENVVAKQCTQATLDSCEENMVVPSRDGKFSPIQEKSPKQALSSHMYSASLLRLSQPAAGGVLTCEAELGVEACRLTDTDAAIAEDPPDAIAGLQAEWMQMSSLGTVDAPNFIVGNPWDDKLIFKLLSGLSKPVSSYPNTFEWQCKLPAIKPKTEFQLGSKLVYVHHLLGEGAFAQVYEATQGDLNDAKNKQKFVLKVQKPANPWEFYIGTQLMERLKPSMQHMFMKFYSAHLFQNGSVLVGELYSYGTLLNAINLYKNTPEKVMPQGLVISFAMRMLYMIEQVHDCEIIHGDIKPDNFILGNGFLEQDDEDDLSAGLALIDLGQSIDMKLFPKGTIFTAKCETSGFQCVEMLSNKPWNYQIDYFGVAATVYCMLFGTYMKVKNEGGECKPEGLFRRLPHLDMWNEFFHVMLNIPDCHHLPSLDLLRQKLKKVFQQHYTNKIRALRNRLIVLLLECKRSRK
Calls of active or inactive are those of the source.
Reply using exactly one outcome from class 1 (active), class 0 (inactive)

• CCn1c(-c2nonc2N)nc2c(C#CC(C)(C)O)ncc(OC[C@H]3CCCNC3)c21 = class 0
• Cc1nc(N)sc1-c1ccnc(Nc2ccc(N3CCOCC3)cc2)n1 = class 1

Q. Check the results log: what was the call for COc1cc(N2CCC(N3CCN(C)CC3)CC2)ccc1Nc1ncnc(Nc2ccccc2S(=O)(=O)C(C)C)n1 ?
A. class 0

Q. Dear all, I need the recorded test outcome for N[C@@H]1CCCN(c2c(/C=C3\SC(=O)NC3=O)cccc2-c2ccccc2)C1 , thank you.
A. class 0

Q. For CC(=O)Nc1cccc(-n2c(=O)n(C3CC3)c(=O)c3c(Nc4ccc(I)cc4F)n(C)c(=O)c(C)c32)c1 , what call appears in the results of this test?
A. class 0

Q. Per the assay record, what outcome was assigned to COc1cc2nccc(Oc3ccc(NC(=O)NC4CC4)c(Cl)c3)c2cc1C(N)=O ?
A. class 0
